assay system: T1, PTH receptor-cam8 "chameleon" (human)
T1 construct: Stably expressed in HEK293 cells; also tested in membranes made from these cells; also called PTHR-cam; PTHR-cam8
T1 sequence (chain, as listed by the source limits assumed): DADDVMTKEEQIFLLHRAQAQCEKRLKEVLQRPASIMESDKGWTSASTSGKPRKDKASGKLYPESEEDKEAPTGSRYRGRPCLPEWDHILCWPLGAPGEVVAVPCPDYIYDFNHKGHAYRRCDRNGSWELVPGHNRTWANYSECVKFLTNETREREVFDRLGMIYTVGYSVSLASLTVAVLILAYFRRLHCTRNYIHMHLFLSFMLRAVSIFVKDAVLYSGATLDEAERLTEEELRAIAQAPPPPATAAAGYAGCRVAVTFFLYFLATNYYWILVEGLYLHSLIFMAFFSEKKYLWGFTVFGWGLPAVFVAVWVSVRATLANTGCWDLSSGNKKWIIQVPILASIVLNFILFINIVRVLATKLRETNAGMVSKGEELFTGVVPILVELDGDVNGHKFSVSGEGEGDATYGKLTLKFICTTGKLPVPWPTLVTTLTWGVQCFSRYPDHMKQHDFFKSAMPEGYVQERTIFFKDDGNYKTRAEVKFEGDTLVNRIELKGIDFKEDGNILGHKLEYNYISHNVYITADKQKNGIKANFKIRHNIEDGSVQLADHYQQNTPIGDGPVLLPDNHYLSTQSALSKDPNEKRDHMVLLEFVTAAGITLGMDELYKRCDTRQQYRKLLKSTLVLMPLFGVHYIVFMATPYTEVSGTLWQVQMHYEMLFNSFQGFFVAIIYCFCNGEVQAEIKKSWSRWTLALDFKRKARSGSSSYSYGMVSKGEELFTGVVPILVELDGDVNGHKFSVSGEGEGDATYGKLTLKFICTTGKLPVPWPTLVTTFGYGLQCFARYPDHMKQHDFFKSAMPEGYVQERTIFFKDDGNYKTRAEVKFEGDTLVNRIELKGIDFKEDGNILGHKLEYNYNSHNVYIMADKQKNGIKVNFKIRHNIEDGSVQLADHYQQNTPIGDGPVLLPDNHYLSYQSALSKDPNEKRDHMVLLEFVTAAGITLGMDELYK
assay comment: competition ligand binding, receptor stably expressed in HEK293 cells
pKi: −log10 of the molar value.

# binder, pKi
records = [
    ("SVSEIQLMHNLGKHLNSMERVEWLRKKLQDVHNF (peptide, UniProt P01270 32-65, looked up) [parathyroid hormone (PTH)]", 7.81),
]
